Exercise: state measured pIC50 for each of the compounds provided.
Target: Gamma-secretase
Assay: Inhibition of gamma-secretase-mediated Notch deltaE cleavage in human HeLa cells by luciferase assay
Format: cell-based
Bear in mind: pIC50 is minus log10 of a mol/L concentration; give just that figure.

Determine its reported pIC50: `Cc1cc(OC2CCN(c3nc(Nc4cc(C(C)(C)C)ccc4C)c4c(ncn4C)n3)CC2)ncn1`
4.89

Look up and state reported pIC50 for `COc1ccc(N2CCN(c3nc(Nc4cc(C(C)(C)C)ccc4C)c4c(n3)nc(C)n4C)CC2(C)C)cc1`
5.04

Name the recorded pIC50 of the compound listed here: `Cc1ccc(C(C)(C)C)cc1Nc1nc(NCCc2cnn(C)c2)nc2ncn(C)c12`
4.66

Determine from records and report pIC50 for `Cc1ccc(C(C)(C)C)cc1Nc1nc(N2CCN(Cc3ccncc3)CC2)nc2ncn(C)c12`
5.04

* * *

Assay: Drug level in APP-YAC transgenic mouse brain at 100 mg/kg, po after 6 hrs
Type: ADME, organism-based
Set-up: dose 100 mg/kg, route oral
Conditions: read-out: Drug uptake
Please go through the items and note down their concentration at 6 h.
Numeric answer only, unit µM assumed.

Specify measured concentration at 6 h for `COc1ccc(N2CCN(c3nc(Nc4cc(C(C)(C)C)ccc4C)c4c(ncn4C)n3)CC2(C)C)cc1` .
7.8

Output concentration at 6 h of `Cc1cc(OC2CCN(c3nc(Nc4cc(C(C)(C)C)ccc4C)c4c(ncn4C)n3)CC2)ncn1`
7.8

* * *

Molecular target: Gamma-secretase (Homo sapiens) (UniProt Q96BI3+Q9NZ42+Q8WW43+P49768+Q92542+P49810)
Experiment: Selectivity ratio, IC50 for human gamma-secretase-mediated Notch deltaE cleavage to IC50 for gamma-secretase-mediated amyloid beta 42 production
Assay type: protein-complex assay
Can you tell me Ratio IC50 for the items I'm about to list?

Name the recorded Ratio IC50 of the compound listed here: `COc1ccc(N2CCN(c3nc(Nc4cc(C(C)(C)C)ccc4C)c4c(ncn4C)n3)CC2)cc1`
> 1300

Indicate the recorded Ratio IC50 value for this compound: `Cc1ccc(C(C)(C)C)cc1Nc1nc(N2CCN(Cc3ccncc3)CC2)nc2ncn(C)c12`
760

Tell me measured Ratio IC50 for `Cc1ccc(C(C)(C)C)cc1Nc1nc(NCCc2cnn(C)c2)nc2ncn(C)c12` please.
330

Look up and state reported Ratio IC50 for `Cc1cc(OC2CCN(c3nc(Nc4cc(C(C)(C)C)ccc4C)c4c(ncn4C)n3)CC2)ncn1`
810

Return the recorded Ratio IC50 value; entry: `COc1ccc(N2CCN(c3nc(Nc4cc(C(C)(C)C)ccc4C)c4c(ncn4C)n3)CC2(C)C)cc1`
> 2400

Entry `COc1ccc(N2CCN(c3nc(Nc4cc(C(C)(C)C)ccc4C)c4c(n3)nc(C)n4C)CC2(C)C)cc1` needs its Ratio IC50 filled in; supply it.
420

Please supply the value of reported Ratio IC50 for the item `COc1ccc(N2CCN(c3nc(Nc4cc(C(C)(C)C)ccc4C)c4c(n3)nc(C(F)(F)F)n4C)CC2(C)C)cc1`
> 1000

* * *

Would you kindly list concentration at 6 h for each of these molecules?
Assay: Drug level in APP-YAC transgenic mouse plasma at 100 mg/kg, po after 6 hrs
Assay type: ADME, organism-based
Design: dose 100 mg/kg, route oral
Details: read-out: Drug uptake
State just the number; it will be interpreted in µM.

Look up and state reported concentration at 6 h for `COc1ccc(N2CCN(c3nc(Nc4cc(C(C)(C)C)ccc4C)c4c(ncn4C)n3)CC2(C)C)cc1`
23

Hello, please tell me recorded concentration at 6 h for this one: `Cc1cc(OC2CCN(c3nc(Nc4cc(C(C)(C)C)ccc4C)c4c(ncn4C)n3)CC2)ncn1`
27
